Molecular target: T1, recombinant Human/Cynomolgus CD28 (N-6His) (Human/Cynomolgus, UniProt P10747 19-152)
T1 construct: Bought protein; also called antigen CD28; not shown: 6His tag at the N-terminus (N-6His)
Assay: ELISA; plate coated with CD28 (N-6His) 2 µg/mL; HRP-anti-hFc
measured.endpoint: EC50 (mg/L)
Please give a number only; it is taken to be in mg/L.

Solved entries:
[[record]]
binder = "huVH4huVL3 (antibody, human IgG1, kappa, V domains shown) VH: QVQLQESGPGLVKPSETLSLTCTVSGFSLSDYGVHWIRQPPGKGLEWIGVIWAGGGTNYNSALKSRVTISVDTSKNQVSLKLSSVTAADTAVYYCARDKGYSYYYSMDYWGQGTTVTVSS VL: DIQLTQSPSSLSASVGDRVTITCRASESVEYYVTSLMQWYQQKPGKAPKLLIFAASNVESGVPSRFSGSGSGTDFTLTISSLQPEDFATYYCQQSRKVPYTFGGGTKLEIKR"
measured_endpoint = "EC50"
units_of_measure = "mg/L"
test_result = 0.0127

[[record]]
binder = "huVH3huVL3 (antibody, human IgG1, kappa, V domains shown) VH: QVQLQESGPGLVKPSETLSLTCTVSGFSLSDYGVHWVRQSPGKGLEWIGVIWAGGGTNYNSALKSRKTISKDNSKSQVSLKLSSVTAADTAVYYCARDKGYSYYYSMDYWGQGTTVTVSS VL: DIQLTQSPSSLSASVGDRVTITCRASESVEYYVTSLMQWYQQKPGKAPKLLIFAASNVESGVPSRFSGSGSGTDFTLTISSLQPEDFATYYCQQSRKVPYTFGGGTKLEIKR"
measured_endpoint = "EC50"
units_of_measure = "mg/L"
test_result = 0.00827


Query string: Recall and state the measured EC50 for huVH3huVL1 (antibody, human IgG1, kappa, V domains shown) VH: QVQLQESGPGLVKPSETLSLTCTVSGFSLSDYGVHWVRQSPGKGLEWIGVIWAGGGTNYNSALKSRKTISKDNSKSQVSLKLSSVTAADTAVYYCARDKGYSYYYSMDYWGQGTTVTVSS VL: DIQLTQSPSSLSVSVGDRVTISCRASESVEYYVTSLMQWYQQKPGQAPKLLIFAASNVESGVPSRFSGSGSGTNFTLTISSVQEEDFAMYFCQQSRKVPYTFGGGTKLEIKR .
Result string: 0.0121
